target: KV7.1/mink (Homo sapiens, UniProt P51787); assay: Whole-cell patch clamp on KV7.1/mink (IKs); settings: KV7.1/mink, IKs
METRIC: IC50

Request: Give its IC50 value. Item: "Cl.Clc1ccc(CCCOCCCN2CCCCC2)cc1"
Result: > 10 µM

====

assay: in vivo; conditions: both sexes, Beagle, dog, in vivo, po, 10 mg·kg^−1 p.o., 1 h after administration, read-out: total drug exposure (serum level)
METRIC: concentration at 1 h (ng/mL)
Give the value in ng/mL but do not write ng/mL after it.

Request: Give its concentration at 1 h value. Item: Cl.Clc1ccc(CCCOCCCN2CCCCC2)cc1 [pitolisant]
Result: 15.8

====

Assay: in vivo
Conditions: both sexes, Beagle, dog, in vivo, iv, 1.5 mg·kg^−1 i.v., 5 min, read-out: total drug concentration
Protocol: Telemetry implantation was performed as previously described (Lacroix et al., 2003). Approximately 2 weeks later, blood pressure, heart rate and ECG intervals were recorded per blocks of 30 s at the time points of interest for 30 min before and for 24 h after administration of test compound. […] The QT interval measured was corrected for heart rate using the Fridericia formula (QTcF) and the van de Waters formula. […]
METRIC: concentration at 5 min (ng/mL)
Give the value in ng/mL but do not write ng/mL after it.

Request: Give its concentration at 5 min value. Item: "Cl.Clc1ccc(CCCOCCCN2CCCCC2)cc1"
Result: 294

====

target: α2C‐adrenoceptor (Homo sapiens); test: Affinity at α2C-adrenoceptor; format: binding
Sequence (P18825 whole entry): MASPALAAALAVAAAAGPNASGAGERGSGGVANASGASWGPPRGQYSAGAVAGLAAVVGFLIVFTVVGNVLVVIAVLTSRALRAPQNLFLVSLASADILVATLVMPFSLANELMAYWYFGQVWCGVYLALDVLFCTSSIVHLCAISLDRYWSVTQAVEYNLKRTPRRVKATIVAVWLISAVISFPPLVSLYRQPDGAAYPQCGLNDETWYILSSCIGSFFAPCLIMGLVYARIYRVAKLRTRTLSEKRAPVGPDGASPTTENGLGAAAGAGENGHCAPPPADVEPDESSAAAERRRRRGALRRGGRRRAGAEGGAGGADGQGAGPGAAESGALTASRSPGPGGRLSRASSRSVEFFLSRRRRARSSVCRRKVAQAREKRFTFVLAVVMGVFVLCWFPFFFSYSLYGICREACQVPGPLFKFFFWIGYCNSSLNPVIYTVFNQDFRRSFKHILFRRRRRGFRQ
METRIC: pKi
pKi (log units): -log10 of the concentration in mol/L.

Request: Give its pKi value. Item: Cl.Clc1ccc(CCCOCCCN2CCCCC2)cc1 [pitolisant]
Result: 5.92

====

Target: CaV3.2 (Homo sapiens, UniProt O95180)
Construct: expressed in transfected cells
Assay: Whole-cell patch clamp on CaV3.2 (ICaT)
Assay type: cell-based
Settings: Pitolisant IC50, CaV3.2, ICaT
Procedure: and CiPA Initiative Studies ============================================================= In vitro studies on other ion channels […] through NaV1.5, KV4.3, KV7.1/mink, Kir2.1, KV1.5, CaV1.2 and CaV3.2 channels. 35-mm dish culture in the conditions mentioned in standard cell culture conditions. Experiments were performed with a cell density enabling isolated cells for patch clamping. Cells were continuously superfused with extracellular medium (1-2 mL∙minute-1) at room temperature. […]
pIC50: −log10 of the molar value.
METRIC: pIC50

Request: Give its pIC50 value. Item: "Cl.Clc1ccc(CCCOCCCN2CCCCC2)cc1"
Result: ≤ 5.00

====

target: α2A‐adrenoceptor (Homo sapiens, UniProt P08913)
Sequence (P08913 whole entry): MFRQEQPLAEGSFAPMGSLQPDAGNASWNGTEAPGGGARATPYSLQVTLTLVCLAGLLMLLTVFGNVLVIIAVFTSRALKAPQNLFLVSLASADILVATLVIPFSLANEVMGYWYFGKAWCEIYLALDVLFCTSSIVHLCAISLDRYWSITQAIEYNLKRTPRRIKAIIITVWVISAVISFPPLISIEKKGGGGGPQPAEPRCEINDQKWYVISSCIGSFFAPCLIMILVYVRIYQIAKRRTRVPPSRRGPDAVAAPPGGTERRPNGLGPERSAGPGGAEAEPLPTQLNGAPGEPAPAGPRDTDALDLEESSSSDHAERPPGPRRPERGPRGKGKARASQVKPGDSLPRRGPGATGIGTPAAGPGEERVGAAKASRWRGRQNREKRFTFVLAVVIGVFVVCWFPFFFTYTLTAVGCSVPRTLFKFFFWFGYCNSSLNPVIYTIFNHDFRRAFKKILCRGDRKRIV
METRIC: Ki (µM)
Give the value in µM but do not write µM after it.

Request: Give its Ki value. Item: Cl.Clc1ccc(CCCOCCCN2CCCCC2)cc1 [pitolisant]
Result: 2.9

====

Molecular target: KV4.3 (Homo sapiens, UniProt Q9UK17)
Construct: expressed in transfected cells
Sequence (Q9UK17 1-655): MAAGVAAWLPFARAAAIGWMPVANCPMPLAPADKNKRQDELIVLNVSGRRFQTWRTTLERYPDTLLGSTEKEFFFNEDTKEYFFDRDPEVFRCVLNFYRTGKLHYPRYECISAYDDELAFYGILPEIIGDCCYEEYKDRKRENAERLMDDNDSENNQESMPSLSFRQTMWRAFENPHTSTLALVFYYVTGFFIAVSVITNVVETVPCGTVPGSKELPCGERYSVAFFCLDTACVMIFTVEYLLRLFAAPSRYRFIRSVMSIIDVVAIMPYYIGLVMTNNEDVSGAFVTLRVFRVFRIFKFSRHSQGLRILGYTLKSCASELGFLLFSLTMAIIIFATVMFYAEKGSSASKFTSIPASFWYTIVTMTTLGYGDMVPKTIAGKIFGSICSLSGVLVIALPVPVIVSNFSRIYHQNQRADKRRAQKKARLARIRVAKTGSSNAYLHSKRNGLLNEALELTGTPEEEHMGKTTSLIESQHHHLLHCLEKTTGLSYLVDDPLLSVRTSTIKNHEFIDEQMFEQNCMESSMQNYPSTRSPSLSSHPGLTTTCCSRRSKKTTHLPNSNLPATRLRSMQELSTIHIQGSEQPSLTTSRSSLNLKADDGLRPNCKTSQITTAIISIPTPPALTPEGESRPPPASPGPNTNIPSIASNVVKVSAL
Test: Whole-cell patch clamp on KV4.3 (Ito)
Format: cell-based
Conditions: Pitolisant IC50, KV4.3, Ito
METRIC: IC50

Request: // map Cl.Clc1ccc(CCCOCCCN2CCCCC2)cc1 [pitolisant] to recorded IC50 (system: KV4.3 (Homo sapiens, UniProt Q9UK17))
Result: ~10 µM

====

Target: Kir2.1 (Homo sapiens)
Construct: expressed in transfected cells
Sequence (P63252 1-427): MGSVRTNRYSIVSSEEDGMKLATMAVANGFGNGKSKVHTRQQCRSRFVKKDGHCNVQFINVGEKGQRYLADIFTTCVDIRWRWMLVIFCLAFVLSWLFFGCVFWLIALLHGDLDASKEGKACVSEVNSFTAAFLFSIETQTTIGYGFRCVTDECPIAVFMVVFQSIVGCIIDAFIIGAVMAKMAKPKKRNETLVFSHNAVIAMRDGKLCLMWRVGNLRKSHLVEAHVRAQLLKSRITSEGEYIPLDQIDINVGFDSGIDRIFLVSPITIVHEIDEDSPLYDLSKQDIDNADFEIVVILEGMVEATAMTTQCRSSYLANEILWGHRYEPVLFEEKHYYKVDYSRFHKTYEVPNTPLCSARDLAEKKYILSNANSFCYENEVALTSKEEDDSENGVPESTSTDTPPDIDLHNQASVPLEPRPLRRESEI
Assay: Whole-cell patch clamp on Kir2.1 (IK1)
Format: cell-based
Settings: Kir2.1 IK1; Hill curve fit with Hill coefficient of one; read-out: Fitted IC50
METRIC: pIC50
pIC50 (log units): -log10 of the concentration in mol/L.

Request: Give its pIC50 value. Item: "Cl.Clc1ccc(CCCOCCCN2CCCCC2)cc1"
Result: 4.78

====

assay: in vivo; settings: both sexes, Beagle, dog, in vivo, iv, 1.5 mg·kg^−1 i.v., 30 min, read-out: total drug concentration
METRIC: concentration at 30 min (ng/mL)
Give the value in ng/mL but do not write ng/mL after it.

Request: Give its concentration at 30 min value. Item: Cl.Clc1ccc(CCCOCCCN2CCCCC2)cc1 [pitolisant]
Result: 231

====

target: Kir2.1 (Homo sapiens, UniProt P63252); construct: expressed in transfected cells; assay: Whole-cell patch clamp on Kir2.1 (IK1); assay type: cell-based; conditions: Pitolisant IC50, Kir2.1, IK1
pIC50: −log10 of the molar value.
METRIC: pIC50

Request: // map "Cl.Clc1ccc(CCCOCCCN2CCCCC2)cc1" to recorded pIC50 (system: Kir2.1 (Homo sapiens, UniProt P63252))
Result: ≤ 5.00

====

target: NaV1.5 (Homo sapiens, UniProt Q14524); experiment: cell-based; conditions: Pitolisant IC50, NaV1.5 fast inactivated state, INa
Sequence (Q14524 whole entry): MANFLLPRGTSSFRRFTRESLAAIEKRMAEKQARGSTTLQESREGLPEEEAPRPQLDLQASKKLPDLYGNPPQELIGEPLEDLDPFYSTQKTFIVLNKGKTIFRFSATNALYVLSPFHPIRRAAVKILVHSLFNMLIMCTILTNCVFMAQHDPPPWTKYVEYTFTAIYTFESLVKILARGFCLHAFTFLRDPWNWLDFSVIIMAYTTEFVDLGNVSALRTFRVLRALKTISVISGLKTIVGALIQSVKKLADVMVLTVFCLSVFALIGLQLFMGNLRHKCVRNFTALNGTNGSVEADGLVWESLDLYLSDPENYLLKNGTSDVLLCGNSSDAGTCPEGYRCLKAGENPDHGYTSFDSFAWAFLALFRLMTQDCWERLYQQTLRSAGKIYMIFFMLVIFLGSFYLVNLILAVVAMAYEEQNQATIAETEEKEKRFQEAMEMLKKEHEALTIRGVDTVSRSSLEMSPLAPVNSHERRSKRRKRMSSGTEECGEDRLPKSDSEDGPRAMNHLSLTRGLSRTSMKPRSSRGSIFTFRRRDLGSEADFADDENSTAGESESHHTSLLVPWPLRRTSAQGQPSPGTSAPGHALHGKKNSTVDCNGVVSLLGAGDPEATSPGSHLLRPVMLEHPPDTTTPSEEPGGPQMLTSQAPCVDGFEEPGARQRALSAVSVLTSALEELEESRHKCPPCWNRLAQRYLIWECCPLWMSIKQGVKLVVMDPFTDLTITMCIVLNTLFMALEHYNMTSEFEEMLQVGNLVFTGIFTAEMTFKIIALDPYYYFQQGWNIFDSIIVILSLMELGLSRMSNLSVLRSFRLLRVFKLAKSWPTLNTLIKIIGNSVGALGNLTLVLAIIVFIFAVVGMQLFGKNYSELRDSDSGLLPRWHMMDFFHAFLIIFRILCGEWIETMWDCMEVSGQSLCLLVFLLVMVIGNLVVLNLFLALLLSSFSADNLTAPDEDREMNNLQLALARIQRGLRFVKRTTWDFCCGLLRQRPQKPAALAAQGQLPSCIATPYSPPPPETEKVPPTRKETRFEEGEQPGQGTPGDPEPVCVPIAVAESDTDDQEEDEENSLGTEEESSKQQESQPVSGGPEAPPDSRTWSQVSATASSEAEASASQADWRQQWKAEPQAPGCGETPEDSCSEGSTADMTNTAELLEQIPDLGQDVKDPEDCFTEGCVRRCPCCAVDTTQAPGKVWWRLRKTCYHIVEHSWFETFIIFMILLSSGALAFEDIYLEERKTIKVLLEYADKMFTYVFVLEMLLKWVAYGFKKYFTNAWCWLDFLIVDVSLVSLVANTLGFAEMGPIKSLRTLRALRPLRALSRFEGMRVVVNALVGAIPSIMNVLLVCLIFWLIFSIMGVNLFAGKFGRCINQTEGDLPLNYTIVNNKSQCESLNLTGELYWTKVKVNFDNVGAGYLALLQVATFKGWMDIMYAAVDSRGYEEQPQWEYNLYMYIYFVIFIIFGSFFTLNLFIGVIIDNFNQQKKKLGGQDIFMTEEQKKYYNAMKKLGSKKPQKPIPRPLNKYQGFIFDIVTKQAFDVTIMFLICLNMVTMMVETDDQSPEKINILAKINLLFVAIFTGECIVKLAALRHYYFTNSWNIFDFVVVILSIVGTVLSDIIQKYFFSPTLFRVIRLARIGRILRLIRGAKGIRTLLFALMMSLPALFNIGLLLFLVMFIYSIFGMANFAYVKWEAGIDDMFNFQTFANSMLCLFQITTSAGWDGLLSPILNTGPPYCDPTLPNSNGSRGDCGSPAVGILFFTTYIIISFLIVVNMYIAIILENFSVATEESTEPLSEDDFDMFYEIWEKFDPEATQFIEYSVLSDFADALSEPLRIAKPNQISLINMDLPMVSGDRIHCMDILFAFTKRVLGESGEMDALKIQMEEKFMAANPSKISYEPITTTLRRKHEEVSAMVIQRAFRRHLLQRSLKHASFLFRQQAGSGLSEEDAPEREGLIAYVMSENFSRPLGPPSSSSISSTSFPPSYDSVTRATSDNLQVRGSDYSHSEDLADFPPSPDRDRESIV
METRIC: IC50

Request: Give its IC50 value. Item: "Cl.Clc1ccc(CCCOCCCN2CCCCC2)cc1"
Result: ≥ 10 µM

====

Biological target: NaV1.5 (Homo sapiens, UniProt Q14524)
Assay: cell-based
Conditions: Pitolisant IC50, NaV1.5 resting state, INa
Experimental: and CiPA Initiative Studies ============================================================= In vitro studies on other ion channels […] through NaV1.5, KV4.3, KV7.1/mink, Kir2.1, KV1.5, CaV1.2 and CaV3.2 channels. 35-mm dish culture in the conditions mentioned in standard cell culture conditions. Experiments were performed with a cell density enabling isolated cells for patch clamping. Cells were continuously superfused with extracellular medium (1-2 mL∙minute-1) at room temperature. […]
pIC50: −log10 of the molar value.
METRIC: pIC50

Request: // map "Cl.Clc1ccc(CCCOCCCN2CCCCC2)cc1" to recorded pIC50 (system: NaV1.5 (Homo sapiens, UniProt Q14524))
Result: < 5.00

====

target: KV1.5 (Homo sapiens, UniProt P22460); construct: expressed in transfected cells; experiment: Whole-cell patch clamp on KV1.5 (IKur); format: cell-based; settings: KV1.5 IKur; Hill curve fit with Hill coefficient of one; read-out: Fitted IC50
Sequence (P22460 whole entry): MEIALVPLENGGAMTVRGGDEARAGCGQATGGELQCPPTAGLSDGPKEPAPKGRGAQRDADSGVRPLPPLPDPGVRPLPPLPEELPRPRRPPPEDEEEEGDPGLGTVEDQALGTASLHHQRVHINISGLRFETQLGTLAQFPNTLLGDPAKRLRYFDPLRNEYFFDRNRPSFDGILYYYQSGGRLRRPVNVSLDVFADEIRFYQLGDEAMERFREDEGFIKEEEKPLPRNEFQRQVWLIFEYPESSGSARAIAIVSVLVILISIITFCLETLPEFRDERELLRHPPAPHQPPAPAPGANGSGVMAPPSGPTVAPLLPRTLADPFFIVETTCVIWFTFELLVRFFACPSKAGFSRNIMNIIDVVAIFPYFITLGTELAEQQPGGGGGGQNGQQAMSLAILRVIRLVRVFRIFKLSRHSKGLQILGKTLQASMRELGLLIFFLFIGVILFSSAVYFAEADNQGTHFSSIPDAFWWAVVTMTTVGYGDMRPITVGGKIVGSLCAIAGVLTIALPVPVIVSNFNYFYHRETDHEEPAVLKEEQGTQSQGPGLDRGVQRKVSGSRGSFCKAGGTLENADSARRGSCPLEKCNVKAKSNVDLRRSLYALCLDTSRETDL
METRIC: pIC50
pIC50 (log units): -log10 of the concentration in mol/L.

Request: // map "Cl.Clc1ccc(CCCOCCCN2CCCCC2)cc1" to recorded pIC50 (system: KV1.5 (Homo sapiens, UniProt P22460))
Result: 4.86

====

assay: in vitro; conditions: human
METRIC: fraction unbound

Request: Give its fraction unbound value. Item: "Cl.Clc1ccc(CCCOCCCN2CCCCC2)cc1"
Result: ~0.04
